- method description: Example 1 single dose study: pharmacokinetics
- Assay type: in vivo, human
- condition info: both sexes, human, serum, po, 10 mg, single oral dose 10 mg, healthy volunteers, final mean; read-out: Cmax
quantity measured: Cmax (ng/mL)
A number alone suffices; assume ng/mL.

Please look at this compound and report its Cmax: O=C(Nc1nc(-c2cc(Cl)cs2)c(N2CCN(C3CCCCC3)CC2)s1)c1cnc(N2CCC(C(=O)O)CC2)c(Cl)c1 [Formula I]
69.1

---

- method description: Example 1 single dose study: pharmacokinetics
- Format: in vivo, human
- condition info: both sexes, plasma, oral; single 50 mg daily dose, human; read-out: mean time to maximum plasma concentration (Tmax)
quantity measured: Tmax

Please look at this compound and report its Tmax: `O=C(Nc1nc(-c2cc(Cl)cs2)c(N2CCN(C3CCCCC3)CC2)s1)c1cnc(N2CCC(C(=O)O)CC2)c(Cl)c1`
~4.8 h

---

- method description: Example 1 single dose study: pharmacokinetics
- Type: in vivo, human
- condition info: both sexes, human, plasma, po, 100 mg, single oral dose 100 mg, healthy volunteers, final mean; read-out: Cmax
quantity measured: Cmax (ng/mL)
A number alone suffices; assume ng/mL.

Please look at this compound and report its Cmax: `O=C(Nc1nc(-c2cc(Cl)cs2)c(N2CCN(C3CCCCC3)CC2)s1)c1cnc(N2CCC(C(=O)O)CC2)c(Cl)c1`
388

---

- method description: Example 2 multi-dose study: pharmacokinetics
- Format: in vivo, human
- condition info: both sexes, human, in vivo, oral; 20 mg once daily, Study Day 14, simulated data at steady-state; read-out: Cmax, ss
quantity measured: Cmax (ng/mL)
A number alone suffices; assume ng/mL.

Please look at this molecule and report its Cmax: O=C(Nc1nc(-c2cc(Cl)cs2)c(N2CCN(C3CCCCC3)CC2)s1)c1cnc(N2CCC(C(=O)O)CC2)c(Cl)c1 [Formula I]
205

---

- method description: Example 2 multi-dose study: pharmacokinetics
- Assay type: in vivo, human
- condition info: both sexes, human, in vivo, oral, 10 mg, 10 mg once daily, Study Day 14, median
quantity measured: Tmax

Please look at this compound and report its Tmax: O=C(Nc1nc(-c2cc(Cl)cs2)c(N2CCN(C3CCCCC3)CC2)s1)c1cnc(N2CCC(C(=O)O)CC2)c(Cl)c1 [Formula I]
4.5 h

---

- method description: Example 2 multi-dose study: pharmacokinetics
- Type: in vivo, human
- condition info: both sexes, human, in vivo, oral; 10 mg once daily, Study Day 14, mean; read-out: Cmax, ss
quantity measured: Cmax

Please look at this molecule and report its Cmax: `O=C(Nc1nc(-c2cc(Cl)cs2)c(N2CCN(C3CCCCC3)CC2)s1)c1cnc(N2CCC(C(=O)O)CC2)c(Cl)c1`
94.1 ng/mL

---

- method description: Example 2 multi-dose study: pharmacokinetics
- Format: in vivo, human
- condition info: both sexes, human, in vivo, oral, 10 mg, 10 mg once daily, Study Day 1, median
quantity measured: Tmax (h)
A number alone suffices; assume h.

Please look at this compound and report its Tmax: O=C(Nc1nc(-c2cc(Cl)cs2)c(N2CCN(C3CCCCC3)CC2)s1)c1cnc(N2CCC(C(=O)O)CC2)c(Cl)c1 [Formula I]
6

---

- method description: Example 2 multi-dose study: pharmacokinetics
- Type: in vivo, human
- condition info: both sexes, human, in vivo, oral; 20 mg once daily, Study Day 14, simulated data at steady-state
quantity measured: half-life (h)
A number alone suffices; assume h.

Please look at this compound and report its half-life: `O=C(Nc1nc(-c2cc(Cl)cs2)c(N2CCN(C3CCCCC3)CC2)s1)c1cnc(N2CCC(C(=O)O)CC2)c(Cl)c1`
20.8

---

- method description: Example 1 single dose study: pharmacokinetics
- Format: in vivo, human
- condition info: both sexes, plasma, oral; single 20 mg daily dose, human; read-out: mean AUC0-last
quantity measured: AUC(0-t)

Please look at this compound and report its AUC(0-t): O=C(Nc1nc(-c2cc(Cl)cs2)c(N2CCN(C3CCCCC3)CC2)s1)c1cnc(N2CCC(C(=O)O)CC2)c(Cl)c1 [Formula I]
1960 to 3600 ng·h/mL

---

- method description: Example 1 single dose study: pharmacokinetics
- Assay type: in vivo, human
- condition info: both sexes, plasma, oral; single 10 mg daily dose, human; read-out: mean time to maximum plasma concentration (Tmax)
- Procedure: A single-center, randomized, double-blind, dose-rising study to determine the safety, pharmacokinetics, and pharmacodynamics of single doses of 1-(3-chloro-5-{[4-(4-chlorothiophen-2-yl)-5-(4-cyclohexylpiperazin-1-yl)thiazol-2-yl]carbamoyl} pyridin-2-yl)piperadine-4-carboxylic acid (Formula I) in normal healthy volunteers was performed. The starting dose of the drug of Formula I was 1 mg (expressed as free base). Successive dose cohorts received 3, 10, 20, 50, 75 and 100 mg. […]
quantity measured: Tmax

Please look at this molecule and report its Tmax: `O=C(Nc1nc(-c2cc(Cl)cs2)c(N2CCN(C3CCCCC3)CC2)s1)c1cnc(N2CCC(C(=O)O)CC2)c(Cl)c1`
4.8 to 6 h

---

- method description: Example 1 single dose study: pharmacokinetics
- Assay type: in vivo, human
- condition info: both sexes, human, serum, po, 3 mg, single oral dose 3 mg, healthy volunteers, final mean; read-out: T½ (converted)
quantity measured: half-life (h)
A number alone suffices; assume h.

Please look at this compound and report its half-life: O=C(Nc1nc(-c2cc(Cl)cs2)c(N2CCN(C3CCCCC3)CC2)s1)c1cnc(N2CCC(C(=O)O)CC2)c(Cl)c1 [Formula I]
23.6

---

- method description: Example 1 single dose study: pharmacokinetics
- Assay type: in vivo, human
- condition info: both sexes, human, plasma, po, 1 mg, single oral dose 1 mg, healthy volunteers, final mean; read-out: T½ (converted)
- Procedure: A single-center, randomized, double-blind, dose-rising study to determine the safety, pharmacokinetics, and pharmacodynamics of single doses of 1-(3-chloro-5-{[4-(4-chlorothiophen-2-yl)-5-(4-cyclohexylpiperazin-1-yl)thiazol-2-yl]carbamoyl} pyridin-2-yl)piperadine-4-carboxylic acid (Formula I) in normal healthy volunteers was performed. The starting dose of the drug of Formula I was 1 mg (expressed as free base). Successive dose cohorts received 3, 10, 20, 50, 75 and 100 mg. […]
quantity measured: half-life (h)
A number alone suffices; assume h.

Please look at this molecule and report its half-life: `O=C(Nc1nc(-c2cc(Cl)cs2)c(N2CCN(C3CCCCC3)CC2)s1)c1cnc(N2CCC(C(=O)O)CC2)c(Cl)c1`
21.5

---

- method description: Example 1 single dose study: pharmacokinetics
- Format: in vivo, human
- condition info: both sexes, human, plasma; single oral dose 1 mg, healthy volunteers, preliminary mean
- Procedure: A single-center, randomized, double-blind, dose-rising study to determine the safety, pharmacokinetics, and pharmacodynamics of single doses of 1-(3-chloro-5-{[4-(4-chlorothiophen-2-yl)-5-(4-cyclohexylpiperazin-1-yl)thiazol-2-yl]carbamoyl} pyridin-2-yl)piperadine-4-carboxylic acid (Formula I) in normal healthy volunteers was performed. The starting dose of the drug of Formula I was 1 mg (expressed as free base). Successive dose cohorts received 3, 10, 20, 50, 75 and 100 mg. […]
quantity measured: AUC (ng·h/mL)
A number alone suffices; assume ng·h/mL.

Please look at this molecule and report its AUC: O=C(Nc1nc(-c2cc(Cl)cs2)c(N2CCN(C3CCCCC3)CC2)s1)c1cnc(N2CCC(C(=O)O)CC2)c(Cl)c1 [Formula I]
161

---

- method description: Example 1 single dose study: pharmacokinetics
- Format: in vivo, human
- condition info: both sexes, human, plasma; single oral dose 50 mg, healthy volunteers, preliminary mean
quantity measured: AUC (ng·h/mL)
A number alone suffices; assume ng·h/mL.

Please look at this compound and report its AUC: O=C(Nc1nc(-c2cc(Cl)cs2)c(N2CCN(C3CCCCC3)CC2)s1)c1cnc(N2CCC(C(=O)O)CC2)c(Cl)c1 [Formula I]
9180

---

- method description: Example 1 single dose study: pharmacokinetics
- Format: in vivo, human
- condition info: both sexes, human, serum; single oral dose 3 mg, healthy volunteers, final mean; read-out: AUC0-last
- Experimental: A single-center, randomized, double-blind, dose-rising study to determine the safety, pharmacokinetics, and pharmacodynamics of single doses of 1-(3-chloro-5-{[4-(4-chlorothiophen-2-yl)-5-(4-cyclohexylpiperazin-1-yl)thiazol-2-yl]carbamoyl} pyridin-2-yl)piperadine-4-carboxylic acid (Formula I) in normal healthy volunteers was performed. The starting dose of the drug of Formula I was 1 mg (expressed as free base). Successive dose cohorts received 3, 10, 20, 50, 75 and 100 mg. […]
quantity measured: AUC(0-t) (ng·h/mL)
A number alone suffices; assume ng·h/mL.

Please look at this compound and report its AUC(0-t): `O=C(Nc1nc(-c2cc(Cl)cs2)c(N2CCN(C3CCCCC3)CC2)s1)c1cnc(N2CCC(C(=O)O)CC2)c(Cl)c1`
401

---

- method description: Example 2 multi-dose study: pharmacokinetics
- Type: in vivo, human
- condition info: both sexes, human, in vivo, oral; 3 mg once daily, Study Day 14, mean; read-out: Cmax, ss
quantity measured: Cmax

Please look at this compound and report its Cmax: `O=C(Nc1nc(-c2cc(Cl)cs2)c(N2CCN(C3CCCCC3)CC2)s1)c1cnc(N2CCC(C(=O)O)CC2)c(Cl)c1`
25.6 ng/mL
